Experiment: Nile Red efflux blockade in pump-expressing yeast – validation compound set, multiplex, phenotypic, pilot screen (AID 588506);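 note: Nile Red retained in cells so higher fluorescence means more efflux inhibition; 0 = negative control wells and 1 = enniatin B 25 µM full block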
Details: S. cerevisiae pump-expressing triplex, Nile Red efflux flow cytometry; at 10 µM; hits give high values; the pumps come from Candida albicans
endpoint label: efflux inhibition (fraction of control)
API doc: respond with a numeric literal and nothing else, no unit.

molecule=CC(=O)[C@@]1(O)CC[C@H]2[C@@H]3CCC4=CC(=O)CC[C@]4(C)[C@H]3[C@@H](O)C[C@@]21C measured_value=-0.2
molecule="CCn1cc(CN2N=C(C)CC2c2ccccc2)c(C)n1 (stereo unspecified)" measured_value=-0.28
molecule="CC1(C)C(=O)OC(c2cccs2)C2(CCCCC2)C1=O (stereo unspecified)" measured_value=-0.01
molecule=COc1ccc(S(N)(=O)=O)cc1C(N)=O measured_value=0.02

Please fill in: efflux inhibition (fraction of control) reported for COCCOC(=O)C1=C(C)NC(C)=C(C(=O)OC(C)C)C1c1cccc([N+](=O)[O-])c1 (stereo unspecified) = -0.17

Please fill in: efflux inhibition (fraction of control) reported for CCOc1cc2c(cc1OCC)C(c1ccccc1)N(c1ccc(C(=O)O)cc1)C(=O)C2 (stereo unspecified) = -0.1

Please fill in: efflux inhibition (fraction of control) reported for Cc1ccc(C2=NOC(=O)/C2=C\C=C\c2ccccc2)cc1 = -0.17

Please fill in: efflux inhibition (fraction of control) reported for COc1ccc(C=O)c(OC)c1 = 0.08

Please fill in: efflux inhibition (fraction of control) reported for N/C(=N\OC(=O)/C=C/c1ccccc1)c1ccc(Br)cc1 = -0.01

Please fill in: efflux inhibition (fraction of control) reported for CC(CCc1ccccc1)NC(=O)/C=C/c1ccccc1 (stereo unspecified) = -0.13

Please fill in: efflux inhibition (fraction of control) reported for Cc1ccc2c(c1)C(O)(C1COC(C)(C)CC1=O)C(=O)N2C (stereo unspecified) = 0.05

====

Assay: AML differentiation inducers, ER-HoxA9 marrow cells – cell-based, GFP/MAC1 double positive, flow cytometry, validation set, primary screen (AID 588685);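 note: compound exposure lasts four days before antibody staining and flow analysis; 0% = DMSO wells and 100% = 5 µM fulvestrant positive control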
Settings: hits give high values, normalized: vehicle 0, fulvestrant 100
Item-by-item account of differentiation response
Numbers only; they are read as %.

compound="CN(CCO)CC(O)Cn1cnc2c1c(=O)n(C)c(=O)n2C (stereo unspecified) (tested in a mixture with another compound)" measured_value=-3.02
compound=CC(C)(C)OC(=O)NCCC(=O)Oc1ccc2ccc(=O)oc2c1 measured_value=-12
compound=COc1ccc(O)c(C(=O)/C=C/c2cc3ccccc3o2)c1 measured_value=-2.4
compound=CC(=O)OC[C@H]1O[C@@H](Sc2cccc3cccnc23)[C@H](OC(C)=O)[C@@H](OC(C)=O)[C@H]1OC(C)=O measured_value=-5.97

Next item in the queue.
Please fill in: differentiation response reported for O=C(NCCc1c[nH]c2ccccc12)c1cccnc1 = 12

====

Item-by-item account of GFP response vs DMSO
Experiment: TOR pathway GLN3 branch reporter MEP2-GFP changes – S. cerevisiae, multiplex flow cytometry, primary screen (AID 1867);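 note: median GFP channel fluorescence of barcode-gated MEP2-GFP cells measured by flow cytometry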
Conditions: S. cerevisiae MEP2-GFP strain, 3 h, at 10 µM, hits give high values, 100% means same as DMSO wells
Records with an inconclusive call do not appear.
Numbers only; they are read as %.

Illustrative cases are given below, each with its answer.
molecule=COc1ccc(/C=C\c2nc(=O)c3ccccc3o2)cc1 endpoint_label="GFP response vs DMSO" measured_value=100
molecule="Cc1ccc(S(=O)(=O)NC(C(=O)Oc2cc3oc(=O)cc(C)c3cc2Cl)C(C)C)cc1 (centres undefined)" endpoint_label="GFP response vs DMSO" measured_value=102

Please fill in: GFP response vs DMSO reported for CC12CN3CC(C)(CN(C1)C3c1ccc(Cl)cc1Cl)C2=O (centres undefined) = 98.3

Please fill in: GFP response vs DMSO reported for Cc1nc(N)nc2c1CCCC2 = 133

Please fill in: GFP response vs DMSO reported for Fc1ccc(-n2cc(CNCCc3ccccn3)c(-c3ccccc3Cl)n2)cc1 = 102

Please fill in: GFP response vs DMSO reported for CCOc1ccc(OCCSc2nc3ccccc3[nH]2)cc1 = 98.5

Please fill in: GFP response vs DMSO reported for O=C(Nc1cccc(Oc2c(F)c(F)c(F)c(F)c2F)c1)N1C[C@@H]2C[C@@H](C1)c1cccc(=O)n1C2 = 101
